- TARGET_SYSTEM: human MASP1 (Homo sapiens (Human))
- Sequence (P48740 other isoform, or with tags, fused parts or gaps): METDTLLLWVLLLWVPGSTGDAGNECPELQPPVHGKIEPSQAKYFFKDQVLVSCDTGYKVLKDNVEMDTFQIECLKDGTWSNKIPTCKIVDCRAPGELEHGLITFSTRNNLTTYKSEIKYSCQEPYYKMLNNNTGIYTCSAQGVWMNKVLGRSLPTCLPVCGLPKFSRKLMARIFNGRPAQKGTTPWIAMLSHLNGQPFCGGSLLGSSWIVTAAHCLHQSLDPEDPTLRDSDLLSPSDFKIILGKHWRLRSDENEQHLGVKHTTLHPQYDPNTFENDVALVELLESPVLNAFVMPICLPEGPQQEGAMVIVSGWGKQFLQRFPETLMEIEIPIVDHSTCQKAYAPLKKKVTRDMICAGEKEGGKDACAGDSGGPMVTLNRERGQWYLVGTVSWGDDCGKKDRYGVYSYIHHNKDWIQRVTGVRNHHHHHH
- PROTOCOL_NOTES: Biochemical human MASP1 assay (FRET substrate)
- ASSAY_CONTEXT: Average IC50; recombinant human MASP1; read-out: human MASP1 IC50
Where a SMILES comes first, the peptide text is derived from it. Bridges are numbered along the chain shown (N, C = ends). [ ]: non-standard residue; d: D form. tBuAla = CC(C)(C)C[C@H](N)C(=O)O; Pen = CC(C)(S)[C@H](N)C(=O)O; Orn = NCCC[C@H](N)C(=O)O
QUANTITY_NAME: IC50
Param answer (str): number followed by unit.

>>> value_measured("CC[C@H](C)[C@@H]1NC(=O)[C@H](C)NC(=O)[C@@H](N)CCCNC(=O)C[C@@H](C(N)=O)NC(=O)[C@@H]2CCCN2C(=O)[C@H]([C@@H](C)CC)NC(=O)[C@H]2NC(=O)[C@H]([C@@H](C)CC)NC(=O)[C@@H]3CCCN3C(=O)[C@@H]3CCCN3C(=O)[C@H](CC(C)(C)C)NC(=O)[C@H](CO)NC(=O)[C@H](CCCNC(=N)N)NC(=O)[C@H](CO)NC(=O)[C@H](CSSC2(C)C)NC1=O [Example 61] (H-[Orn]AICSRS[tBuAla]PPI[Pen]IPD-NH2; lactam 1-15; disulfide 4-12)")
"3.1 nM"

Okay, next one:
Value (IC50, human MASP1 (Homo sapiens (Human))) for record CC[C@H](C)[C@@H]1NC(=O)[C@H]2NC(=O)[C@H]([C@@H](C)CC)NC(=O)[C@@H]3CCCN3C(=O)[C@@H]3CCCN3C(=O)[C@H](CC(C)(C)C)NC(=O)[C@H](CO)NC(=O)[C@H](CCCNC(=N)N)NC(=O)[C@H](CO)NC(=O)[C@H](CSSC2(C)C)NC(=O)[C@H]([C@@H](C)CC)NC(=O)[C@@H](N)CCCNC1=O [Example 66] (H-[Orn]ICSRS[tBuAla]PPI[Pen]I; lactam 1-C; disulfide 3-11) = 8.1 nM

* * *

- TARGET_SYSTEM: human MASP2 (Homo sapiens (Human), UniProt O00187)
- Sequence (O00187 other isoform, or with tags, fused parts or gaps): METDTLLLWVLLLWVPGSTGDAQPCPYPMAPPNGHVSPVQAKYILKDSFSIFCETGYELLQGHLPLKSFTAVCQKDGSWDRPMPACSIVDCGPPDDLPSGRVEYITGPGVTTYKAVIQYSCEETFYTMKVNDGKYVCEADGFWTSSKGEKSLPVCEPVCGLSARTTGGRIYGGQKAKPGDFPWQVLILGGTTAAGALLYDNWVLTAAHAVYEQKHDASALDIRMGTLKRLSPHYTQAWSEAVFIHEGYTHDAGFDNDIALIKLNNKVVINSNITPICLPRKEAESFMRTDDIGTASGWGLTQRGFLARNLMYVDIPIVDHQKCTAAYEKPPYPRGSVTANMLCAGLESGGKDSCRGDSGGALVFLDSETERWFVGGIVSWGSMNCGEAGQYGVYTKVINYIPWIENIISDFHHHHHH
- PROTOCOL_NOTES: Biochemical human MASP2 assay (FRET substrate)
- ASSAY_CONTEXT: Average IC50; recombinant human MASP2; read-out: human MASP2 IC50
Where a SMILES comes first, the peptide text is derived from it. Bridges are numbered along the chain shown (N, C = ends).
QUANTITY_NAME: pIC50
One number for each entry, as −log10 of the molar value.

Noted for CC[C@H](C)[C@@H]1NC(=O)[C@@H]2CCCN2C(=O)[C@@H]2CCCN2C(=O)[C@H]([C@@H](C)CC)NC(=O)[C@@H]2CSSC[C@H](NC(=O)[C@H]([C@@H](C)O)NC(=O)[C@H](CCCCN)NC(=O)[C@H](CO)NC1=O)C(=O)N[C@@H](CCCNC(=N)N)C(=O)NCC(=O)N[C@@H](CC(=O)O)C(=O)N1CCC[C@H]1C(=O)N[C@@H](Cc1ccccc1)C(=O)N2 [Ref. No 12, reference compound] (cyclo(RGDPFCIPPISKTC); disulfide 6-14) : its pIC50 reads 5.30

* * *

- TARGET_SYSTEM: human MASP1 (Homo sapiens (Human))
- PROTOCOL_NOTES: Biochemical human MASP1 assay (FRET substrate)
- ASSAY_CONTEXT: Average IC50; recombinant human MASP1; read-out: human MASP1 IC50
Where a SMILES comes first, the peptide text is derived from it. Bridges are numbered along the chain shown (N, C = ends). [ ]: non-standard residue; d: D form. tBuAla = CC(C)(C)C[C@H](N)C(=O)O; Pen = CC(C)(S)[C@H](N)C(=O)O; Ahx = NCCCCCC(=O)O; Sar = CNCC(=O)O
QUANTITY_NAME: IC50 (nM)
Numbers only, in nM.

Some compounds with known IC50 results, for comparison:
>>> value_measured("CC[C@H](C)[C@@H]1NC(=O)CN(C)C(=O)CCCCCNC(=O)[C@@H]2CCCN2C(=O)[C@H]([C@@H](C)CC)NC(=O)[C@H]2NC(=O)[C@H]([C@@H](C)CC)NC(=O)[C@@H]3CCCN3C(=O)[C@@H]3CCCN3C(=O)[C@H](CC(C)(C)C)NC(=O)[C@H](CO)NC(=O)[C@H](CCCNC(=N)N)NC(=O)[C@H](CO)NC(=O)[C@H](CSSC2(C)C)NC1=O")
8.5
>>> value_measured("CC[C@H](C)[C@@H]1NC(=O)CN(C)C(=O)CCCCCNC(=O)[C@H]([C@@H](C)CC)NC(=O)[C@H]2NC(=O)[C@H]([C@@H](C)CC)NC(=O)[C@@H]3CCCN3C(=O)[C@@H]3CCCN3C(=O)[C@H](CC(C)(C)C)NC(=O)[C@H](CO)NC(=O)[C@H](CCCNC(=N)N)NC(=O)[C@H](CO)NC(=O)[C@H](CSSC2(C)C)NC1=O [Example 64] (cyclo([Ahx][Sar]ICSRS[tBuAla]PPI[Pen]I); disulfide 4-12)")
9.4

Okay, next one:
Noted for CC[C@H](C)[C@@H]1NC(=O)CCCNC(=O)[C@H](CC(=O)O)NC(=O)[C@@H]2CCCN2C(=O)[C@H]([C@@H](C)CC)NC(=O)[C@@H]2CSSC[C@H](NC1=O)C(=O)N[C@@H](CO)C(=O)N[C@@H](CCCNC(=N)N)C(=O)N[C@@H](CO)C(=O)N[C@@H](CC(C)(C)C)C(=O)N1CCC[C@H]1C(=O)N1CCC[C@H]1C(=O)N[C@@H]([C@@H](C)CC)C(=O)N2C : its IC50 reads 8.7
